Target: T1, P1A
T1 chain: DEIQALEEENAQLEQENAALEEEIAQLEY
Assay: two-hybrid library CCNG1;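 further: natural log of median RNA to DNA barcode read ratio; higher means stronger binding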
PROPERTY NAME: interaction score

Would you mind telling me what interaction score value was observed for DEIQALEEENAQLEQENAALEEEIAQLEY [P1A] ? -1.11

[I] DKNAQLKEKIAALKEKIQQLKEENQALEY [P12A]
[II] DKNAQLKEENAALEEKIQQLKEKIQALKY [P10A]
[III] DENQALEQEIAQLEQEIAALEQKNAQLKY [P11A]
Please order the records by their reported interaction score, lowest number first. Please respond by ranking the labels in the order requested. I, III, II
